target: wildtype feline IL-31 (Feline_IL31_wildtype) (feline); test: SPR (Biacore), immobilised IL-31, 1:1 fit
Sequence (chain, as listed by the source limits assumed, form in doubt): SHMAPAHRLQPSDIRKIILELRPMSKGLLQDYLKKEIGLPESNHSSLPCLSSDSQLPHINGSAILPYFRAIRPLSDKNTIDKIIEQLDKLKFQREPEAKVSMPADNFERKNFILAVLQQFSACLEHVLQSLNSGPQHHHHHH
value type: koff (s⁻¹)
Your answer is read as s⁻¹, so omit the unit and give the number.

mouse anti IL-31 antibody 15H05 (antibody, V domains shown) VH: QVQLQQSAAELARPGASVKMSCKTSGYTFTSYTIHWIKQRPGQGLEWIGNINPTSGYTENNQRFKDKTTLTVDRSSNTAYLQLHSLTSEDSAVYFCARWGFKYDGEWSFDVWGAGTTVTVSS VL: DIQMNQSPSSLSASLGDTITVTCRASQGISIWLSWYQQKPGNIPKVLINKASNLHIGVPPRFSGSGSGTHFTLTITSLQPEDIATYYCLQSQTYPLTFGGGTKLEIN yielded koff of 1.69e-05

mouse anti IL-31 antibody 11E12 (antibody, V domains shown) VH: QVQLQQSGAELVKPGASVKLSCKASGYTFKYYDINWVRQRPEQGLEWIGWIFPGDGGTKYNETFKGKATLTTDKSSSTAYMQLSRLTSEDSAVYFCARGGTSVIRDAMDYWGQGTSVTVSS VL: DIVLTQSPASLAVSLGQRATISCRASESVDNYGISFMHWYQQKPGQPPKLLIYRASNLESGIPARFSGSGSRTDFTLTINPVETDDVATYYCQQSNKDPLTFGAGTKLELK yielded koff of 0.000123

Feline 11E12 1.1 (antibody, V domains shown) VH: QVLLVQSGAEVKKPGASVKIFCKASGYSFTYYDINWLRQAPEQGLEWMGWIFPGDGGTKYNETFKGRLTLTADTSTNTVYMELSSLRSADTAMYYCARGGTSVIRDAMDYWGQGALVTVSS VL: EIQMTQSPSSLSASPGDRVTITCRASESVDNYGISFMHWYQQKPGKVPKLLIYRASNLESGVPSRFSGSGSGTDFTLTISSLEPEDAATYYCQQSNKDPLTFGQGT yielded koff of 0.000444

Feline 11E12 1.1 K46Q (antibody, V domains shown) VH: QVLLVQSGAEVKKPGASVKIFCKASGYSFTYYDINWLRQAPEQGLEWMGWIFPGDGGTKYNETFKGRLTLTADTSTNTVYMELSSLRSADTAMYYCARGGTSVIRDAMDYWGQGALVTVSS VL: EIQMTQSPSSLSASPGDRVTITCRASESVDNYGISFMHWYQQKPGQVPKLLIYRASNLESGVPSRFSGSGSGTDFTLTISSLEPEDAATYYCQQSNKDPLTFGQGT yielded koff of 0.000145

Next:
Feline 15H05_VH3 mouse VL (antibody, V domains shown) VH: QVLLVQSGAEVRKPGASVKIFCKASGYSFTSYTIHWLRQAPEQGLEWMGNINPTSGYTENNQRFKDRLTLTADTSTNTAYMELSSLRSADTAMYYCARWGFKYDGEWSFDVWGAGTTVTVSS VL: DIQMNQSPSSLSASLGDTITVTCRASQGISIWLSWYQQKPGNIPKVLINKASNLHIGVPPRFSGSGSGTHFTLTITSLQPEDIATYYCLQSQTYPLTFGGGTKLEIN yielded koff of 1.57e-05
